For each entry below, report its normalised response value.
Test system: CAL-51
Test: normalised response (% of control), CellTiter-Glo; higher = more viable cells (100 = DMSO, 0 = benzethonium chloride kill control)
Conditions: incubation time: 72 h
Numbers only, in %.

Some solved cases for reference:
- COc1cc2c(cc1-c1c(C)noc1C)ncc1[nH]c(=O)n([C@H](C)c3ccccn3)c12 [I-BET151] (10 nM): 94.3
- CN1CCN(c2nc(C3=C(c4c[nH]c5ccccc45)C(=O)NC3=O)c3ccccc3n2)CC1 [Sotrastaurin] (10 nM): 123

Batch request: normalised response for each of the following compounds.
1. Cc1cc2c(F)c(Oc3ncnn4cc(OC[C@@H](C)O)c(C)c34)ccc2[nH]1 [Brivanib] (0.1 nM)
2. NC1(c2ccc(-c3nc4ccn5c(=O)[nH]nc5c4cc3-c3ccccc3)cc2)CCC1 [MK-2206] (1 nM)
3. CC[C@@H]1C(=O)N(C)c2cnc(Nc3ccc(C(=O)N[C@H]4CC[C@H](N5CCN(CC6CC6)CC5)CC4)cc3OC)nc2N1C(C)C [Volasertib] (0.1 nM)
4. CCc1cnn2c(NCc3ccc[n+]([O-])c3)cc(N3CCCC[C@H]3CCO)nc12 [Dinaciclib] (100 nM)
5. COc1cc(Nc2ncc(F)c(Nc3ccc4c(n3)N(COP(=O)(O)O)C(=O)C(C)(C)O4)n2)cc(OC)c1OC [Fostamatinib] (250 nM)

Result:
1. 114
2. 80.6
3. 111
4. 10.2
5. 105
